Biological target: SARS-CoV-2 nsp12 NiRAN domain (Severe acute respiratory syndrome coronavirus 2)
pIC50: −log10 of the molar value.

Molecule	System	Censoring qualifier	pIC50
COC(=O)c1cnn2c(OC)cc(CCl)nc12 [SW396271-1]	SARS-CoV-2 nsp12 NiRAN domain (Severe acute respiratory syndrome coronavirus 2)	<	3.30
C#CCNC(=O)c1cnn2c(O)cc(CCl)nc12 [SW396062-1]	SARS-CoV-2 nsp12 NiRAN domain (Severe acute respiratory syndrome coronavirus 2)	<	3.30
COC(=O)c1cnn2c(O)cc(CCl)nc12 [NCI-2]	SARS-CoV-2 nsp12 NiRAN domain (Severe acute respiratory syndrome coronavirus 2)	=	5.36
C#CCOC(=O)c1cnn2c(O)cc(CCl)nc12 [NCI-3]	SARS-CoV-2 nsp12 NiRAN domain (Severe acute respiratory syndrome coronavirus 2)	=	4.98
COC(=O)c1cnn2c(O)cc(CO)nc12 [SW396063-1]	SARS-CoV-2 nsp12 NiRAN domain (Severe acute respiratory syndrome coronavirus 2)	=	3.43
O=c1cc(CCl)nc2ccc(Cl)cn12 [NCI-1]	SARS-CoV-2 nsp12 NiRAN domain (Severe acute respiratory syndrome coronavirus 2)	=	5.14
COC(=O)c1cn(C)n2c(=O)cc(CCl)nc12 [SW396262-1]	SARS-CoV-2 nsp12 NiRAN domain (Severe acute respiratory syndrome coronavirus 2)	<	3.30

----------
Target: SARS-CoV-2 nsp12 NiRAN domain (Severe acute respiratory syndrome coronavirus 2, UniProt P0DTD1)
pKi: −log10 of the molar value.

Compound	pKi
COC(=O)c1cnn2c(O)cc(CCl)nc12 [NCI-2]	4.79

Sourced from paper PMC12013494
